The reported measurements were obtained from patent US9676780B2.

# System under test: human A2a receptor (Homo sapiens, UniProt P29274)
# Construct: purchased Perkin-Elmer RBHA2AM400UA; host or cells: HEK293
# Sequence (P29274 whole entry): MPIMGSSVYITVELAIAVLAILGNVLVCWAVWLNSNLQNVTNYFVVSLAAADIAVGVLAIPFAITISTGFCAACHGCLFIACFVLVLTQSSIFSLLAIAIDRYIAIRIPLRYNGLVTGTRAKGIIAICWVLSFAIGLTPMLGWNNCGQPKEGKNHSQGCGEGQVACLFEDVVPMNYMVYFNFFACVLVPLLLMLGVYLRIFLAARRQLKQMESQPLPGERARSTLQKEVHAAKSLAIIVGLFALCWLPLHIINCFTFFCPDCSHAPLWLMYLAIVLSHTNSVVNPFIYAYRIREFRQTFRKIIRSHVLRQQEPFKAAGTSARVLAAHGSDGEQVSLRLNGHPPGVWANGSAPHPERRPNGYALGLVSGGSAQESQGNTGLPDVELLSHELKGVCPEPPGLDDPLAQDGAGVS
# Test summary: A2a receptor competition binding assay (Scintillation Proximity, tritiated radioligand)
# Protocol conditions: membranes from HEK293 cells expressing the human A2a receptor; 0.5 nM tritiated ligand; SPA beads; one hour at room temperature; read-out: A2a EC50
pEC50: −log10 of the molar value.
Endpoint: pEC50

Known results for compounds:
| Compound | Value observed |
| --- | --- |
| COc1cc(F)cc2c1nc(N)n1nc(CN3CCN(c4ccc(F)cc4)CC3C)nc21 (centres unmarked) [Ex-11] | 8.11 |
| COc1ccnc(N2CCN(Cc3nc4c5cccc(OC)c5nc(N)n4n3)C(C)C2)c1 (centres unmarked) | 7.78 |

P = COc1cccc2c1nc(N)n1nc(CN3CCN(c4cc(C(F)F)ccn4)CC3C)nc21 (centres unmarked)
Q = COc1cccc2c1nc(N)n1nc(CN3CCN(C(=O)c4ccc(F)cc4)CC3(C)C)nc21
R = COc1cccc2c1nc(N)n1nc(CN3CCN(c4nccs4)CC3C)nc21 (centres unmarked)
QUERY: Task field, ranking: reported pEC50, descending order. Please reply with the labels ordered as requested. Many thanks.
RESULT: P, Q, R
(P: 8.37, Q: 7.54, R: 7.13)
